# Target: EGF tyrosine kinase (Homo sapiens, UniProt P00533)
# Sequence (P00533 25-1210): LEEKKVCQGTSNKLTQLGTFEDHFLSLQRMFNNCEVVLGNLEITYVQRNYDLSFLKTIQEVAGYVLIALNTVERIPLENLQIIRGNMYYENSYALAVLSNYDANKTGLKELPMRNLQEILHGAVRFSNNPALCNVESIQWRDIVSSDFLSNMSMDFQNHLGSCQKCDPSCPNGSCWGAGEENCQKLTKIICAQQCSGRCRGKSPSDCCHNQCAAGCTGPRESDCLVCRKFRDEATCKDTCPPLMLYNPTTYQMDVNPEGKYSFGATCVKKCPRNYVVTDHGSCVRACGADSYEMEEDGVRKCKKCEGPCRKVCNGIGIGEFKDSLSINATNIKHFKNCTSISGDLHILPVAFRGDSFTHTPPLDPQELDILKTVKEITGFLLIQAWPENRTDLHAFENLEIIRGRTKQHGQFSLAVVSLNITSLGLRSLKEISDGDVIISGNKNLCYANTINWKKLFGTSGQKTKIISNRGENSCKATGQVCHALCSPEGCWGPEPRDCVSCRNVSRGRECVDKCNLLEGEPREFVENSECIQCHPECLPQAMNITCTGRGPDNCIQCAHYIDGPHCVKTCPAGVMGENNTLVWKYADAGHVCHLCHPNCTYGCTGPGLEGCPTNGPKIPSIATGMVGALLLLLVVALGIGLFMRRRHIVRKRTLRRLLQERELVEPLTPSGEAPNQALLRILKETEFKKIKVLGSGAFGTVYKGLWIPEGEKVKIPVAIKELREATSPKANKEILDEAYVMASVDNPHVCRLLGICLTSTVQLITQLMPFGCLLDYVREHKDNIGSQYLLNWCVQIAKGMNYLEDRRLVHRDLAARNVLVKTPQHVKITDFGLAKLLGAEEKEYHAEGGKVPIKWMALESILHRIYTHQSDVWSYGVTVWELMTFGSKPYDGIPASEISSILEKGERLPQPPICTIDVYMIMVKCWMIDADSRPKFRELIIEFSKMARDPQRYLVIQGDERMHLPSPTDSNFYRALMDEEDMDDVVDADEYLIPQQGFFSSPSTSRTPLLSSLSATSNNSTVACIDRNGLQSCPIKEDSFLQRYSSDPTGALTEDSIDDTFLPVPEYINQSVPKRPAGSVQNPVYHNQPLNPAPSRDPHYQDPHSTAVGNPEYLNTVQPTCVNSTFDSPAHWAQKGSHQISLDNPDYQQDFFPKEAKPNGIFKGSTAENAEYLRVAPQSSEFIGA
Recorded Metric: IC50

Which IC50 is reported with EGF tyrosine kinase (Homo sapiens, UniProt P00533) for this entry: CCC(C)C=C(C)C1C(C)=CC2(C)CC(C)CCC2C1C(=O)C1=CC(O)(Cc2ccc(O)cc2)NC1=O (stereo not shown) ? ~3 µM

* * *

# Target: P56^lck tyrosine kinase (Homo sapiens, UniProt P06239)
# Sequence (P06239 whole entry): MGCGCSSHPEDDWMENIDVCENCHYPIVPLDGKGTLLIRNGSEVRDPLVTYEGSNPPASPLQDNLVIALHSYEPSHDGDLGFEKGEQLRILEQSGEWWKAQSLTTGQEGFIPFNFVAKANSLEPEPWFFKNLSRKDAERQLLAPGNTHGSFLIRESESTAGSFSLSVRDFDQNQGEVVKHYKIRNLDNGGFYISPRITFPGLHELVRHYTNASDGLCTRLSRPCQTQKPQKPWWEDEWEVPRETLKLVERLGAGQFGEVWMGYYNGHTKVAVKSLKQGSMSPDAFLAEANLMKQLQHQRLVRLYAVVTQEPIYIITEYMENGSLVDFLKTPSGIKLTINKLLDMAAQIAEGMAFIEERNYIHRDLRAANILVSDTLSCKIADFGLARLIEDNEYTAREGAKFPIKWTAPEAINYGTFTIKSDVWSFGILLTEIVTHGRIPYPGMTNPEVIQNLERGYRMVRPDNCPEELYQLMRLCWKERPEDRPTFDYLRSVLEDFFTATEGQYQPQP
Recorded Metric: IC50

Quick check: IC50 of CCC(C)C=C(C)C1C(C)=CC2(C)CC(C)CCC2C1C(=O)C1=CC(O)(Cc2ccc(O)cc2)NC1=O (stereo not shown) [Compound 1494] ? ~3 µM
